Numbers sourced from PubChem BioAssay AID686978.

Assay: qHTS for Inhibitors of human tyrosyl-DNA phosphodiesterase 1 (TDP1): qHTS in cells in absence of CPT; further: nearly all actives have a fitted effect of over 55% in size; further: potency means the concentration at half of the fitted maximal effect
Settings: DT40 Tdp1-/- hTDP1 cells, no CPT, ATP luminescence, 48 h
Out of some 420,000 compounds screened, about 64,000 (15%) were called active. Inconclusive results (about 27%) are left out. The list is a sample of the results.
MEASURE_NAME: Potency

> print(dat)
                                 cpd.smiles            result
1  COc1cc(OC)c(NC(=O)c2cc(S(=O)(=O)N3CCCC3)cn2C)cc1Cl          inactive
2            C#CCOc1ccccc1/C=C1/C(=O)ON=C1C  14.6 µM (active)
3  Cc1cc(Nc2cccc(C(F)(F)F)c2)nc2ccc(NC(=O)c3ccc(=O)[nH]c3)cc12  4.61 µM (active)
4  Cc1cccc(C(=O)Nc2ccccc2-c2nnn(CC(=O)Nc3ccc4c(c3)OCCO4)n2)c1          inactive
5           O=C(CN1CCSCC1)N/N=C/c1ccc(F)cc1          inactive

The record that follows has no Potency shown yet.
Potency reading for COc1cc(-c2nnn(CC(=O)NCc3ccccc3)n2)cc(OC)c1OC : 14.6 µM (active)
